Provenance of the data: patent US4605744A

test system: P. aeruginosa 8710; assay: In vitro antibacterial activity (MIC); assay type: cell-based; settings: Pseudomonas aeruginosa; P. aeruginosa 8710; read-out: MIC
Where a name gives a salt, the structure may show the parent alone.

| molecule | MIC |
| --- | --- |
| CC1(C)S[C@@H]2[C@H](N=CN3CCC(CCCn4ccnc4)CC3)C(=O)N2[C@H]1C(=O)O [C, hydrochloride monohydrate] | > 128 µg/mL |
| CC1(C)S[C@@H]2[C@H](N=CN3CCC(CCC4=NCCN4)CC3)C(=O)N2[C@H]1C(=O)O [N, hydrochloride] | 32 µg/mL |
| CC1(C)S[C@@H]2[C@H](N=CN3CCC(Cc4ncc[nH]4)CC3)C(=O)N2[C@H]1C(=O)O [Q, hydrochloride] | 128 µg/mL |
| CC1(C)S[C@@H]2[C@H](N=CN3CCC(CCCn4ccnc4[N+](=O)[O-])CC3)C(=O)N2[C@H]1C(=O)O [K, hydrate] | > 128 µg/mL |

====

system: E. coli 5152; assay: In vitro antibacterial activity (MIC); type: cell-based; conditions: Escherichia coli, 5152, E. coli 5152; read-out: MIC
Counter-ions that a name gives are not always drawn.
# note: exactly 20 mg/L is not below, so it is not met; use met for MIC strictly under it

| compound | labelValue |
| --- | --- |
| CC1(C)S[C@@H]2[C@H](N=CN3CCC(CC4=NCCN4)CC3)C(=O)N2[C@H]1C(=O)O [M, hydrochloride] | met |
| CN(C)C=Nc1nccn1CCCC1CCN(C=N[C@@H]2C(=O)N3[C@@H]2SC(C)(C)[C@@H]3C(=O)O)CC1 [S, hydrate] | met |
| CC1(C)S[C@@H]2[C@H](N=CN3CCC(C4=NCCN4)CC3)C(=O)N2[C@H]1C(=O)O [L, hydrochloride] | not met |
| CC1(C)S[C@@H]2[C@H](N=CN3CCC(Cn4ccnc4CN)CC3)C(=O)N2[C@H]1C(=O)O [J, hydrochloride] | met |
| CC1(C)S[C@@H]2[C@H](N=CN3CCC(CCCn4ccnc4CO)CC3)C(=O)N2[C@H]1C(=O)O [R, hydrate] | met |
| CC1(C)S[C@@H]2[C@H](N=CN3CCC(c4ncc[nH]4)CC3)C(=O)N2[C@H]1C(=O)O [O, hydrochloride trihydrate] | met |
| CC1(C)S[C@@H]2[C@H](N=CN3CCC(Cn4ccnc4N)CC3)C(=O)N2[C@H]1C(=O)O [H, hydrochloride] | met |
| CC1(C)S[C@@H]2[C@H](/N=C/N3CCCCCC3)C(=O)N2[C@H]1C(=O)O [Amdinocillin, amdinocillin, reference compound] | met |
| Cc1nc(C)n(CCCC2CCN(C=N[C@@H]3C(=O)N4[C@@H]3SC(C)(C)[C@@H]4C(=O)O)CC2)c1C [E, hydrate hydrochloride] | met |
| CC1(C)S[C@@H]2[C@H](N=CN3CCC(Cc4ncc[nH]4)CC3)C(=O)N2[C@H]1C(=O)O [Q, hydrochloride] | not met |
| CC1(C)S[C@@H]2[C@H](N=CN3CCCC(c4ncc[nH]4)C3)C(=O)N2[C@H]1C(=O)O (some centres unmarked) [P, hydrochloride] | not met |
| Cc1nccn1CCCC1CCN(C=N[C@@H]2C(=O)N3[C@@H]2SC(C)(C)[C@@H]3C(=O)O)CC1 [F, hydrate] | met |
| CC1(C)S[C@@H]2[C@H](N=CN3CCC(CCCn4ccnc4)CC3)C(=O)N2[C@H]1C(=O)O [C, hydrochloride monohydrate] | not met |
| CC1(C)S[C@@H]2[C@H](N=CN3CCC(Cn4ccnc4)CC3)C(=O)N2[C@H]1C(=O)O [Compound A] | met |

====

test system: P. aeruginosa 6148B; experiment: In vitro antibacterial activity (MIC); type: cell-based; conditions: Pseudomonas aeruginosa, read-out: MIC
Counter-ions that a name gives are not always drawn.
Measured MIC of individual entries
parameter: MIC

| molecule | testSystem | parameter | valueObserved |
| --- | --- | --- | --- |
| CC1(C)S[C@@H]2[C@H](N=CN3CCC(Cn4ccnc4CN)CC3)C(=O)N2[C@H]1C(=O)O [J, hydrochloride] | P. aeruginosa 6148B | MIC | 128 µg/mL |
| CC1(C)S[C@@H]2[C@H](N=CN3CCC(c4ncc[nH]4)CC3)C(=O)N2[C@H]1C(=O)O [O, hydrochloride trihydrate] | P. aeruginosa 6148B | MIC | > 128 µg/mL |
| Cc1nccn1CCCC1CCN(C=N[C@@H]2C(=O)N3[C@@H]2SC(C)(C)[C@@H]3C(=O)O)CC1 [F, hydrate] | P. aeruginosa 6148B | MIC | > 128 µg/mL |
| CC1(C)S[C@@H]2[C@H](N=CN3CCC(CCCn4ccnc4[N+](=O)[O-])CC3)C(=O)N2[C@H]1C(=O)O [K, hydrate] | P. aeruginosa 6148B | MIC | > 128 µg/mL |
| CC1(C)S[C@@H]2[C@H](N=CN3CCC(CCCn4ccnc4N)CC3)C(=O)N2[C@H]1C(=O)O [I, hydrochloride] | P. aeruginosa 6148B | MIC | 128 µg/mL |
| CCc1nc(C)cn1CCCC1CCN(C=N[C@@H]2C(=O)N3[C@@H]2SC(C)(C)[C@@H]3C(=O)O)CC1 [G, hydrochloride] | P. aeruginosa 6148B | MIC | > 128 µg/mL |
| CC1(C)S[C@@H]2[C@H](N=CN3CCC(Cn4ccnc4)CC3)C(=O)N2[C@H]1C(=O)O | P. aeruginosa 6148B | MIC | > 128 µg/mL |
| CC1(C)S[C@@H]2[C@H](N=CN3CCC(CCC4=NCCN4)CC3)C(=O)N2[C@H]1C(=O)O [N, hydrochloride] | P. aeruginosa 6148B | MIC | 32 µg/mL |
| Cc1nc(C)n(CCCC2CCN(C=N[C@@H]3C(=O)N4[C@@H]3SC(C)(C)[C@@H]4C(=O)O)CC2)c1C [E, hydrate hydrochloride] | P. aeruginosa 6148B | MIC | > 128 µg/mL |
| CC1(C)S[C@@H]2[C@H](/N=C/N3CCCCCC3)C(=O)N2[C@H]1C(=O)O [Amdinocillin, amdinocillin, reference compound] | P. aeruginosa 6148B | MIC | 64 µg/mL |
| CC1(C)S[C@@H]2[C@H](N=CN3CCC(C4=NCCN4)CC3)C(=O)N2[C@H]1C(=O)O [L, hydrochloride] | P. aeruginosa 6148B | MIC | 128 µg/mL |
| CC1(C)S[C@@H]2[C@H](N=CN3CCC(CC4=NCCN4)CC3)C(=O)N2[C@H]1C(=O)O [M, hydrochloride] | P. aeruginosa 6148B | MIC | 32 µg/mL |
| CC1(C)S[C@@H]2[C@H](N=CN3CCC(Cn4ccnc4N)CC3)C(=O)N2[C@H]1C(=O)O [H, hydrochloride] | P. aeruginosa 6148B | MIC | 64 µg/mL |
| CC1(C)S[C@@H]2[C@H](N=CN3CCC(CCCn4ccnc4)CC3)C(=O)N2[C@H]1C(=O)O [C, hydrochloride monohydrate] | P. aeruginosa 6148B | MIC | > 128 µg/mL |

====

System: E. coli R-563
Test: In vitro antibacterial activity (MIC)
Format: cell-based
Conditions: Escherichia coli, R563, E. coli R-563; read-out: MIC
Description: Drug dilutions are prepared in Mueller-Hinton broth ranging from 128 to 0.008 μg/ml. The diluted agents are dispensed in 100 μl amounts into the wells of a 96-well tray and used immediately or frozen at -10° to -70° C. until needed. Using an automated inoculator, 1.5 μl of a 10^-2 dilution of an overnight culture is added to each well of the tray. The tops of the trays are then sealed using transparent tape and incubated overnight at 37° C. The trays are examined with the aid of a viewer. […]
Counter-ions that a name gives are not always drawn.
parameter: MIC (µg/mL)

| molecule | valueObserved |
| --- | --- |
| CC1(C)S[C@@H]2[C@H](N=CN3CCC(Cn4ccnc4CN)CC3)C(=O)N2[C@H]1C(=O)O [J, hydrochloride] | 0.125 |
| CC1(C)S[C@@H]2[C@H](N=CN3CCCC(c4ncc[nH]4)C3)C(=O)N2[C@H]1C(=O)O (stereo partly drawn) [P, hydrochloride] | 2 |
| CCc1nc(C)cn1CCCC1CCN(C=N[C@@H]2C(=O)N3[C@@H]2SC(C)(C)[C@@H]3C(=O)O)CC1 [G, hydrochloride] | 0.25 |

====

Measured MIC of individual entries
tested on: S. pneumoniae 6302; assay: In vitro antibacterial activity (MIC); assay type: cell-based; settings: Streptococcus pneumoniae, 6302, S. pneumoniae 6302; read-out: MIC
Counter-ions that a name gives are not always drawn.

| molecule | unitSpec | MIC |
| --- | --- | --- |
| CC1(C)S[C@@H]2[C@H](N=CN3CCC(Cn4ccnc4CN)CC3)C(=O)N2[C@H]1C(=O)O [J, hydrochloride] | µg/mL | 4 |
| CC1(C)S[C@@H]2[C@H](/N=C/N3CCCCCC3)C(=O)N2[C@H]1C(=O)O [Amdinocillin, amdinocillin, reference compound] | µg/mL | 4 |
| CC1(C)S[C@@H]2[C@H](N=CN3CCC(CCCn4ccnc4)CC3)C(=O)N2[C@H]1C(=O)O [C, hydrochloride monohydrate] | µg/mL | 128 |
| CC1(C)S[C@@H]2[C@H](N=CN3CCC(Cn4ccnc4)CC3)C(=O)N2[C@H]1C(=O)O [Compound A] | µg/mL | 2 |
| CC1(C)S[C@@H]2[C@H](N=CN3CCC(c4ncc[nH]4)CC3)C(=O)N2[C@H]1C(=O)O [O, hydrochloride trihydrate] | µg/mL | 1 |
| CC1(C)S[C@@H]2[C@H](N=CN3CCC(CCCn4ccnc4N)CC3)C(=O)N2[C@H]1C(=O)O [I, hydrochloride] | µg/mL | 4 |
| CC1(C)S[C@@H]2[C@H](N=CN3CCC(Cc4ncc[nH]4)CC3)C(=O)N2[C@H]1C(=O)O [Q, hydrochloride] | µg/mL | 2 |
| CC1(C)S[C@@H]2[C@H](N=CN3CCC(CC4=NCCN4)CC3)C(=O)N2[C@H]1C(=O)O [M, hydrochloride] | µg/mL | 1 |
| CC1(C)S[C@@H]2[C@H](N=CN3CCC(CCCn4ccnc4[N+](=O)[O-])CC3)C(=O)N2[C@H]1C(=O)O [K, hydrate] | µg/mL | 1 |
| Cc1nccn1CCCC1CCN(C=N[C@@H]2C(=O)N3[C@@H]2SC(C)(C)[C@@H]3C(=O)O)CC1 [F, hydrate] | µg/mL | 2 |
| CC1(C)S[C@@H]2[C@H](N=CN3CCC(CCC4=NCCN4)CC3)C(=O)N2[C@H]1C(=O)O [N, hydrochloride] | µg/mL | 2 |
| CCc1nc(C)cn1CCCC1CCN(C=N[C@@H]2C(=O)N3[C@@H]2SC(C)(C)[C@@H]3C(=O)O)CC1 [G, hydrochloride] | µg/mL | 2 |
| CC1(C)S[C@@H]2[C@H](N=CN3CCC(C4=NCCN4)CC3)C(=O)N2[C@H]1C(=O)O [L, hydrochloride] | µg/mL | 1 |
| CC1(C)S[C@@H]2[C@H](N=CN3CCC(Cn4ccnc4N)CC3)C(=O)N2[C@H]1C(=O)O [H, hydrochloride] | µg/mL | 1 |
| Cc1nc(C)n(CCCC2CCN(C=N[C@@H]3C(=O)N4[C@@H]3SC(C)(C)[C@@H]4C(=O)O)CC2)c1C [E, hydrate hydrochloride] | µg/mL | 1 |
